- tested-system: LXRα full length (FL) (Homo sapiens, UniProt Q13133)
- Construct: the full length (FL) proteins of LXRα (amino acids 1-447); NP005684
- Sequence (Q13133 1-447): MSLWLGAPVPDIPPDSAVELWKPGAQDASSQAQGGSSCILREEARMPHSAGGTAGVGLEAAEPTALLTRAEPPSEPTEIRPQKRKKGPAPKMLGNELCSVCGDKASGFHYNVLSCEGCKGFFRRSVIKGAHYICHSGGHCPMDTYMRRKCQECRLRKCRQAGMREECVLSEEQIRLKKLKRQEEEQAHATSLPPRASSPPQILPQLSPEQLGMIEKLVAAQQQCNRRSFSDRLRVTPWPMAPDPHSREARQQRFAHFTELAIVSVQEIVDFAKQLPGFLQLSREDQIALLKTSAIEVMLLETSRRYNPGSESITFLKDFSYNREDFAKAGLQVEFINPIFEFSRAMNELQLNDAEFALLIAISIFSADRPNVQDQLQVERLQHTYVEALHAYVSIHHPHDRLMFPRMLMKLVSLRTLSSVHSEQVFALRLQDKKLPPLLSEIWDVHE
- measurement-notes: LXR Gal4 reporter transient transfection assay (M2H), Gal4α FL
- recorded-conditions: HEK293 cells; read-out: M2H Gal4α FL activity range (EC50)
EC50 values by entry

1) Cc1ccc2ccccc2c1S(=O)(=O)N(Cc1ccc(-c2cccc(C(C)(C)C(=O)O)c2)cc1)C1CCc2ccc(C(F)(F)F)cc21 (stereo not drawn) :: < 100 nM
2) Cc1cc(C)c(S(=O)(=O)N(Cc2ccc(-c3cccc(S(=O)(=O)CC(=O)O)c3)cc2)Cc2c(F)cccc2Cl)c(C)c1 :: 100 to 1000 nM

Attention now shifts to the item below.
Name the reported EC50 value associated with the compound Cc1cc(C)c(S(=O)(=O)N(Cc2ccc(-c3cccc(S(=O)(=O)C(C)(C)C(=O)O)c3)cc2)Cc2ccc(C(F)(F)F)o2)c(C)c1
100 to 1000 nM

---

- tested-system: GST-LXRβ ligand-binding domain (Homo sapiens, UniProt P55055, DUP175-175)
- Construct: amino acids 156-461; NP009052
- Sequence (P55055 with tags, fused parts or gaps DUP175-175): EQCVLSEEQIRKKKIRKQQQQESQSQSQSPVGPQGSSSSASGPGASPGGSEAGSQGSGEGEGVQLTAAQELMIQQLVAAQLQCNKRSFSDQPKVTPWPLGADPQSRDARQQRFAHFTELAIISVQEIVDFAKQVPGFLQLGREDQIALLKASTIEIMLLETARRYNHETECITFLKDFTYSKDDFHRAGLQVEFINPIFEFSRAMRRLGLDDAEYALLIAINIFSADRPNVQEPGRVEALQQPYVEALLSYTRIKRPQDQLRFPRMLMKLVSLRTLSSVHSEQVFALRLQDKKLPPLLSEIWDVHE
- measurement-notes: TR-FRETβ activity assay (LXRβ-LBD / NCoA3 coactivator peptide, prestimulated with 24(S)-25-epoxycholesterol)
- recorded-conditions: 1 μM 24(S)-25-epoxycholesterol as prestimulating agonist; read-out: FRETβ activity range (EC50)
pEC50: −log10 of the molar value.
pEC50 values by entry

Name the reported pEC50 value associated with the molecule Cc1cc(C)c(S(=O)(=O)N(Cc2ccc(-c3cccc(S(=O)(=O)CC(=O)O)c3)cc2)Cc2cccc(OC(F)F)c2)c(C)c1
5.00 to 6.00

Name the reported pEC50 value associated with the molecule Cc1cc(C)c(S(=O)(=O)N(Cc2ccc(-c3cccc(C(F)(F)C(=O)O)c3)cc2)Cc2ccc(C(F)(F)F)o2)c(C)c1
6.00 to 7.00

Name the reported pEC50 value associated with the molecule Cc1cc(C)c(S(=O)(=O)N(Cc2ccc(-c3cccc(C4(C(=O)O)CC4)c3)cc2)Cc2ccc(C(F)(F)F)o2)c(C)c1
6.00 to 7.00

Name the reported pEC50 value associated with the molecule Cc1cc(C)c(S(=O)(=O)N(Cc2ccc(-c3cccc(C(C)C(=O)O)c3)cc2)Cc2ccc(C(F)(F)F)o2)c(C)c1 (stereo not shown)
6.00 to 7.00

Name the reported pEC50 value associated with the molecule CC(C)(C(=O)O)c1cccc(-c2ccc(CN(Cc3ccc(C(F)(F)F)o3)S(=N)(=O)c3cccc4ccccc34)cc2)c1 (stereo not shown)
6.00 to 7.00

Name the reported pEC50 value associated with the molecule O=C(O)CS(=O)(=O)c1cccc(-c2ccc(CN(Cc3ccc(C(F)(F)F)o3)S(=O)(=O)c3c(Cl)cccc3C(F)(F)F)cc2)c1
5.00 to 6.00

Name the reported pEC50 value associated with the molecule Cc1cc(C)c(S(=O)(=O)N(Cc2ccc(-c3cc(F)c(CO)c(S(=O)(=O)CC(=O)O)c3)cc2)Cc2ccc(C(F)(F)F)o2)c(C)c1
5.00 to 6.00

Name the reported pEC50 value associated with the molecule Cc1ccc2ccccc2c1S(=O)(=O)N(Cc1ccc(-c2cccc(S(=O)(=O)CC(=O)O)c2)cc1)Cc1cc(C(F)(F)F)co1
< 5.00

Name the reported pEC50 value associated with the molecule Cc1ccc2ccccc2c1S(=O)(=O)N(Cc1ccc(-c2cccc(S(=O)(=O)CC(=O)O)c2)cc1)Cc1ccc(C(F)(F)F)o1
6.00 to 7.00

Name the reported pEC50 value associated with the molecule Cc1cc(C)c(S(=O)(=O)N(Cc2ccc(N3CCCC(C(C)(C)C(=O)O)C3)cc2)Cc2ccc(C(F)(F)F)o2)c(C)c1 (stereo not shown)
< 5.00

Name the reported pEC50 value associated with the molecule Cc1cc(C)c(S(=O)(=O)N(Cc2ccc(-c3cccc(CC(=O)O)c3)cc2)Cc2cccc(Br)c2)c(C)c1
5.00 to 6.00

Name the reported pEC50 value associated with the molecule Cc1cc(C)c(S(=O)(=O)N(Cc2ccc(C3=CS(=O)(=O)C(CC(=O)O)=C3)cc2)Cc2ccc(C(F)(F)F)o2)c(C)c1
5.00 to 6.00

Name the reported pEC50 value associated with the molecule Cc1cc(C)c(S(=O)(=O)N(Cc2ccc(-c3cccc(S(=O)(=O)CC(=O)O)c3)cc2)C(C)(C)c2ccc(C(F)(F)F)o2)c(C)c1
5.00 to 6.00

Name the reported pEC50 value associated with the molecule Cc1cc(C)c(S(=O)(=O)N(Cc2ccc(-c3cc(F)c(CO)c(S(C)(=O)=O)c3)cc2)Cc2ccc(C(F)(F)F)o2)c(C)c1
> 7.00

Name the reported pEC50 value associated with the molecule Cc1ccc2ccccc2c1S(=O)(=O)N(Cc1ccc(C(F)(F)F)o1)C1COc2cc(-c3cccc(C(C)(C)C(=O)O)c3)ccc21 (stereo not shown)
6.00 to 7.00

Name the reported pEC50 value associated with the molecule Cc1cc(C)c(S(=O)(=O)N(Cc2ccc(C(F)(F)F)o2)Cc2sc(-c3cccc(C(C)(C)C(=O)O)c3)cc2Cl)c(C)c1
5.00 to 6.00
